Attribution: ChEMBL document CHEMBL4229322

# Tested on: Clostridioides difficile
# protocol details: Antimicrobial activity against Clostridium difficile L4013 by broth microdilution method
# Format: functional
Calls of active or inactive are those of the source. The calls are words filed in the database; no cut-off is given here.

smi	assay system	MIC
CNc1cc(=O)c2c(O)c3c(=O)c4c5c(c(OC)cc4c(=O)c3cc2c1=O)C(=O)OC5	Clostridioides difficile	Active
O=C1OCc2c1c(O)cc1c(=O)c3cc4c(=O)c(O)cc(=O)c4c(O)c3c(=O)c21	Clostridioides difficile	> 64 mg/L
COc1cc2c(=O)c3cc4c(=O)c(OC)cc(=O)c4c(O)c3c(=O)c2c2c1C(=O)OC2	Clostridioides difficile	Active
CN[C@H](CC(C)C)C(=O)N[C@H]1C(=O)N[C@@H](CC(N)=O)C(=O)N[C@H]2C(=O)N[C@H]3C(=O)N[C@H](C(=O)N[C@H](C(=O)O)c4cc(O)cc(O)c4-c4cc3ccc4O)[C@H](O)c3ccc(c(Cl)c3)Oc3cc2cc(c3O[C@@H]2O[C@H](CO)[C@@H](O)[C@H](O)[C@H]2O[C@H]2C[C@](C)(N)[C@H](O)[C@H](C)O2)Oc2ccc(cc2Cl)[C@H]1O	Clostridioides difficile	0.5 mg/L

###

# Tested on: Escherichia coli
# protocol details: Antimicrobial activity against delta-tolC containing Escherichia coli L4242 by broth microdilution method
# Type: functional
Calls of active or inactive are those of the source. The rule behind the calls is not given here.

compound	MIC
CNc1cc(=O)c2c(O)c3c(=O)c4c5c(c(OC)cc4c(=O)c3cc2c1=O)C(=O)OC5	Active
COc1cc2c(=O)c3cc4c(=O)c(OC)cc(=O)c4c(O)c3c(=O)c2c2c1C(=O)OC2	Active
O=C1OCc2c1c(O)cc1c(=O)c3cc4c(=O)c(O)cc(=O)c4c(O)c3c(=O)c21	> 16 µg/mL
CN[C@H](CC(C)C)C(=O)N[C@H]1C(=O)N[C@@H](CC(N)=O)C(=O)N[C@H]2C(=O)N[C@H]3C(=O)N[C@H](C(=O)N[C@H](C(=O)O)c4cc(O)cc(O)c4-c4cc3ccc4O)[C@H](O)c3ccc(c(Cl)c3)Oc3cc2cc(c3O[C@@H]2O[C@H](CO)[C@@H](O)[C@H](O)[C@H]2O[C@H]2C[C@](C)(N)[C@H](O)[C@H](C)O2)Oc2ccc(cc2Cl)[C@H]1O [VANCOMYCIN]	> 128 µg/mL

###

# Test system: Acinetobacter baumannii
# protocol details: Antimicrobial activity against Acinetobacter baumannii ATCC 13637 by broth microdilution method
# Assay type: functional
Activity calls are given as the source filed them. No cut-off for these calls is given here.

smi	MIC
CN[C@H](CC(C)C)C(=O)N[C@H]1C(=O)N[C@@H](CC(N)=O)C(=O)N[C@H]2C(=O)N[C@H]3C(=O)N[C@H](C(=O)N[C@H](C(=O)O)c4cc(O)cc(O)c4-c4cc3ccc4O)[C@H](O)c3ccc(c(Cl)c3)Oc3cc2cc(c3O[C@@H]2O[C@H](CO)[C@@H](O)[C@H](O)[C@H]2O[C@H]2C[C@](C)(N)[C@H](O)[C@H](C)O2)Oc2ccc(cc2Cl)[C@H]1O	128 µg/mL
COc1cc2c(=O)c3cc4c(=O)c(OC)cc(=O)c4c(O)c3c(=O)c2c2c1C(=O)OC2	Active
O=C1OCc2c1c(O)cc1c(=O)c3cc4c(=O)c(O)cc(=O)c4c(O)c3c(=O)c21	> 16 µg/mL
CNc1cc(=O)c2c(O)c3c(=O)c4c5c(c(OC)cc4c(=O)c3cc2c1=O)C(=O)OC5	Active
